Origin of the recorded values: the Deep4Chem optical property database

Experiment: solvent given as SMILES
Conditions: in ClCCl
attributeMeasured: absorption maximum (nm)

| lineNotation | attributeMeasured | unitText | experimentalResult |
| --- | --- | --- | --- |
| COc1ccc2cc(/C=C/c3nc(/C=C/c4ccc(N(C)C)cc4)cc(/C=C/c4ccc(N(C)C)cc4)n3)ccc2c1 | absorption maximum | nm | 418 |
| CCOC(=O)/N=c1/oc2cc(N(CC)CC)ccc2cc1C#N | absorption maximum | nm | 440 |
| CC(C)(C)c1ccc2c3c(c4ccc(C(C)(C)C)cc4c2c1)=[N+]1C(=C(c2ccccc2)c2cc4c5ccc(C(C)(C)C)cc5c5cc(C(C)(C)C)ccc5c4n2[B-]1(F)F)C=3 | absorption maximum | nm | 691 |
| COC(=O)c1cc(=O)n(Cc2ccccc2)c2cc(-c3ccc(OC)cc3)sc12 | absorption maximum | nm | 404 |
| COC(=O)c1c(-c2cc3ccccc3oc2=O)nn(-c2cccc(F)c2)c1C(=O)OC | absorption maximum | nm | 323 |
| O=[N+]([O-])c1ccc(/C2=C3N=C(C(c4ccccc4)=C/3c3ccccc3)/C(c3ccc([N+](=O)[O-])cc3)=c3\[nH]/c(c(-c4ccccc4)c3-c3ccccc3)=C(/c3ccc([N+](=O)[O-])cc3)C3=N/C(=C(/c4ccc([N+](=O)[O-])cc4)c4[nH]c2c(-c2ccccc2)c4-c2ccccc2)C(c2ccccc2)=C3c2ccccc2)cc1 | absorption maximum | nm | 711 |
| COC(=O)c1c(-c2cc3ccccc3oc2=O)nn(-c2ccccc2)c1C(=O)OC | absorption maximum | nm | 322 |

---

Experiment: solvent given as SMILES
Conditions: in CC(C)=O
attributeMeasured: absorption maximum (nm)
Value expressed in nm; do not type the unit.

Recorded results for 3 compounds are shown here.
| compound | experimentalResult |
| --- | --- |
| O=C1c2ccccc2-c2ccc(N3CCN(c4ccccc4)CC3)c3cccc1c23 | 441.2 |
| CN(C)CCN(Cc1c2ccccc2c(CN(CCN(C)C)c2ccc([N+](=O)[O-])cc2[N+](=O)[O-])c2ccccc12)c1ccc([N+](=O)[O-])cc1[N+](=O)[O-] | 352 |
| COC(=O)CN1C(=O)c2cc3ccc(N(C)C)cc3cc2C1=O | 375 |

The compound listed as CCN(CC)c1ccc2cc(/C=C/C(=O)/C=C(O)/C=C/c3cc4ccc(N(CC)CC)cc4oc3=O)c(=O)oc2c1 has a reported absorption maximum of 519

The compound listed as Cn1c(=O)c(/N=N/c2ccc(Nc3ccccc3)c(S(=O)(=O)O)c2)c(O)c2ccccc21 has a reported absorption maximum of 407

The compound listed as COc1ccc(C#Cc2nc3ccccc3nc2-c2cn(C)c3ccccc23)cc1 has a reported absorption maximum of 408

The compound listed as CN(C)c1ccc(/C=C/c2ccc(-c3nnc(-c4ccc(-c5cc6ccccc6s5)cc4)o3)cc2)cc1 has a reported absorption maximum of 337

---

Assay: solvent given as SMILES
Details: in Cc1ccccc1
attributeMeasured: absorption maximum (nm)
Value expressed in nm; do not type the unit.

Recorded results for 3 molecules are shown here.
| molecule | absorption maximum (nm) |
| --- | --- |
| C(=C\c1ccc(-c2ccc(/C=C/c3ccc(-n4c5ccccc5c5ccccc54)cc3)s2)s1)/c1ccc(-n2c3ccccc3c3ccccc32)cc1 | 440.22 |
| CC(C)(C)c1ccc2c(c1)c1cc(C(C)(C)C)ccc1n2-c1ccc(-c2nc(-c3ccc(P(=O)(c4ccccc4)c4ccccc4)cc3)nc(-c3ccc(P(=O)(c4ccccc4)c4ccccc4)cc3)n2)cc1 | 375.96 |
| CC(C)c1cc(C(C)C)c(B2c3ccccc3Oc3cc(N4c5ccccc5C5(c6ccccc6-c6ccccc65)c5ccccc54)ccc32)c(C(C)C)c1 | 430 |

The molecule listed as Cc1cc(-n2c3ccccc3c3cc4c(cc32)C2c3ccccc3C4c3ccccc32)ccc1-c1nc(-c2ccccc2)nc(-c2ccccc2)n1 has a reported absorption maximum of 367

The molecule listed as O=C1c2ccccc2C2=Cc3ccc4ccccc4[n+]3[B-](F)(F)N12 has a reported absorption maximum of 458

The molecule listed as CCn1c2ccccc2c2cc(C#Cc3cc(C#Cc4ccc5c(c4)c4ccccc4n5CC)nc(S(C)(=O)=O)n3)ccc21 has a reported absorption maximum of 411

The molecule listed as Cc1nnc(-c2cc(-c3nnc(C)o3)c(-n3c4ccccc4c4ccccc43)cc2-n2c3ccccc3c3ccccc32)o1 has a reported absorption maximum of 359

The molecule listed as c1ccc(-c2nc(-c3ccccc3)nc(-c3ccc(-n4c5ccccc5c5cc(-n6c7ccccc7c7ccccc76)ccc54)cc3)n2)cc1 has a reported absorption maximum of 367

The molecule listed as C1=Nc2cccc3cccc(c23)N1 has a reported absorption maximum of 331

The molecule listed as O=C1/C(=C\c2ccc3oc4ccccc4c3c2)S(=O)(=O)c2ccccc21 has a reported absorption maximum of 373

The molecule listed as CC1(C)c2ccccc2N(c2ccc(-c3nnc(-c4ccccc4O)o3)cc2)c2ccccc21 has a reported absorption maximum of 362

---

Assay: solvent given as SMILES
Conditions: in CC(C)OC(C)C
# absorption maximum per record follows
Value expressed in nm; do not type the unit.

Recorded results for 3 compounds are shown here.
| lineNotation | absorption maximum, nm |
| --- | --- |
| c1ccc(-c2nc(-c3ccc(-c4ccc(N(c5ccccc5)c5ccccc5)cc4)cn3)oc2-c2ccccc2)cc1 | 351 |
| c1ccc(N2c3ccccc3Sc3cc(-c4cccc5nc6ccccc6cc45)ccc32)cc1 | 407 |
| CN(C)c1cc(C#N)c(N(C)C)c(C#N)c1 | 386.7 |

Attention now turns to another entry.
The compound listed as CCCCCCCCCCn1cc(C2=C(c3cn(CCCCCCCCCC)c4ccccc34)C(=O)N(C)C2=O)c2ccccc21 has a reported absorption maximum of 470

---

Assay: solvent given as SMILES
Conditions: in Cc1ccccc1
# absorption maximum per record follows
Value expressed in nm; do not type the unit.

Recorded results for 3 compounds are shown here.
| compound | absorption maximum, nm |
| --- | --- |
| CCCC1=Cc2nc1ccc1[nH]c(cc1CCC)c1nc(c(OC)cc3[nH]c2cc3CCC)C(CCC)=C1 | 682 |
| O=P1(c2ccccc2)C2=C(c3ccccc31)C(c1ccccc1)(c1ccccc1)c1cc(N(c3ccccc3)c3ccccc3)ccc12 (centres undefined) | 431 |
| CC1(C)c2ccccc2N(c2ccc(-c3cccc(C#N)c3)cc2)c2ccccc21 | 344 |

The compound listed as CC1(C)c2ccccc2N(c2ccccc2)c2ccc(-c3ccc(-c4ccc5c(c4)C(C)(C)c4ccccc4N5c4ccccc4)c4nsnc34)cc21 has a reported absorption maximum of 475.42

---

Experiment: solvent given as SMILES
Settings: in C1COCCO1
attributeMeasured: absorption maximum (nm)

Recorded results for 3 compounds are shown here.
| compound | attributeMeasured | experimentalResult |
| --- | --- | --- |
| CN(C)c1ccc(C#Cc2ccc3ccc4ccc(C#Cc5ccc(N(C)C)cc5)c5ccc2c3c45)cc1 | absorption maximum | 429 |
| CC(=O)Nc1ccc(C2=N/C(=C\c3ccc(C#N)cc3)C(=O)O2)cc1 | absorption maximum | 389 |
| CN(C)c1ccc(/C=C/C=C/C2=NC3C(=O)NC(N)=NC3N2[C@H]2C[C@H](O)[C@@H](CO)O2)cc1 (stereo not given in full) | absorption maximum | 352 |

1 = COC(=O)c1ccc(/C=C2\N=C(c3ccccc3)OC2=O)cc1
2 = Cc1ccc(C2=C3C=CC(/C=C/c4ccccc4)=[N+]3[B-](F)(F)n3c(/C=C/c4ccccc4)ccc32)cc1
[in] Just tell me: smaller absorption maximum value, 1 or 2 ? Answer = label.
[out] 1
(1: 370 nm, 2: 633 nm)

I = N#Cc1cccc2[nH]ccc12
II = CC(C)CN1C(=O)/C(=C/c2ccc(C#N)cc2)C=C1c1ccccc1
[in] Between these two entries, I and II , state which has the higher absorption maximum. Answer = label.
[out] II

---

Experiment: solvent given as SMILES
Conditions: in ClC(Cl)Cl
attributeMeasured: absorption maximum (nm)

Recorded results for 2 compounds are shown here.
| lineNotation | absorption maximum / nm |
| --- | --- |
| Cc1ccccc1C(=O)NN1C2=C(CC3=C1CC(C)(C)CC3=O)C(=O)CC(C)(C)C2 | 370 |
| N#Cc1cc2ccc(O)cc2oc1=O | 359 |

a = CCCCCCCCc1ccc(-n2c3c4ccccc4nc(-c4ccc(C#N)cc4)c3c3c2c2c(-c4ccc(C#N)cc4)nc4ccccc4c2n3-c2ccc(CCCCCCCC)cc2)cc1
b = CCOC(=O)/C=C/C1=C(c2ccc(C)cc2)C2=Nc3c(-c4ccc(C)cc4)c(-c4ccc(OC)cc4)c(-c4ccc(C)cc4)n3[B-](F)(F)[N+]2=C1c1ccc(C)cc1
[in] Between these two entries, a and b , state which has the higher absorption maximum. Answer = label.
[out] b

---

Test: solvent given as SMILES
Details: in CO
attributeMeasured: absorption maximum (nm)

Recorded results for 7 compounds are shown here.
| compound | absorption maximum (nm) |
| --- | --- |
| CC1=NN(c2ccccc2)C(=O)/C1=C\c1cn(-c2ccccc2)nc1-c1ccc([N+](=O)[O-])cc1 | 360 |
| CC(C)(C)NC1=C2C=CC=[N+]2[B-](F)(F)n2cccc21 | 410 |
| CCOC(=O)C(C(=O)OCC)C1=[N+]2C(=C(c3ccc(C)cc3)c3ccc(Cl)n3[B-]2(F)F)C=C1 | 508 |
| CCC1=C(C)C2=Cc3c(I)c(I)cn3[B-](F)(F)[N+]2=C1C | 513 |
| c1ccc(N(c2ccccc2)c2ccc(-c3ncc(-c4cnc(-c5ccc(N(c6ccccc6)c6ccccc6)cc5)s4)s3)cc2)cc1 | 422 |
| O=[N+]([O-])c1ccc(-c2nc3c(c4c2-c2ccccc2CC4)-c2ccccc2CC3)cc1 | 334 |
| CCCCC1=Cc2c3ccc4cccc5ccc(c6cc(-c7ccccc7)n(c26)P1(=O)c1ccccc1)c3c45 (centres undefined) | 426 |

I = C(#Cc1ccccc1)c1ccccc1
II = Cc1nc2c(ccc3c2sc(/C=C/c2ccc(N(C)C)cc2)[n+]3C)s1
[in] Between these two entries, I and II , state which has the higher absorption maximum. Answer = label.
[out] II
